Please consider the recorded IC50 for E. coli FtsZ (FtsZEc) GTPase (Escherichia coli) in what follows.

{"compound": "Oc1ccc(Cl)cc1Cc1cc(Cl)cc(Cc2cc(Cl)ccc2O)c1O [27D-12]", "IC50, µM": 5}
{"compound": "CCN(CC)CCNc1nc(C=Cc2ccc(Cl)cc2)nc2cc3ccccc3cc12 [16L-09]", "IC50, µM": 15}
{"compound": "Nc1c(C=Cc2cc3cc(C4=NCCN4)ccc3o2)[nH]c2cc(C3=NCCN3)ccc12 [58P-18]", "IC50, µM": 4}

----------
Please consider the recorded IC50 for UniProt:P9WN95 in what follows.
Sequence (P9WN95 whole entry): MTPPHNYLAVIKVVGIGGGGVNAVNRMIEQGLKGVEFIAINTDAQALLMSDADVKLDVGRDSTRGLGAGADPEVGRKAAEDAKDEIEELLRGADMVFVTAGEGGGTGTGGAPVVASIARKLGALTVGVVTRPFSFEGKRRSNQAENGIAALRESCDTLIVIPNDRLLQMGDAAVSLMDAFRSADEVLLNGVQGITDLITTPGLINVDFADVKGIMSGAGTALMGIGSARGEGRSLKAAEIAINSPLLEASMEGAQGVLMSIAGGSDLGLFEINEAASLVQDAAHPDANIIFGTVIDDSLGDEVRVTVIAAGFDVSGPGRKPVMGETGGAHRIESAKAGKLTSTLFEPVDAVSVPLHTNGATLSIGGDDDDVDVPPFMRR

{"compound": "CCN(CC)CCNc1nc(C=Cc2ccc(Cl)cc2)nc2cc3ccccc3cc12 [16L-09]", "IC50 / µM": 50}
{"compound": "Nc1c(C=Cc2cc3cc(C4=NCCN4)ccc3o2)[nH]c2cc(C3=NCCN3)ccc12 [58P-18]", "IC50 / µM": 30}
{"compound": "Oc1ccc(Cl)cc1Cc1cc(Cl)cc(Cc2cc(Cl)ccc2O)c1O [27D-12]", "IC50 / µM": 55}

Where these numbers come from: patent US20100311770A1
